molecular target: Sigma non-opioid intracellular receptor 1 (Cavia porcellus); assay: Displacement of [3H](+)pentazocine from sigma 1 receptor in guinea pig brain membrane after 150 mins by liquid scintillation counting
Sequence (Q60492 whole entry): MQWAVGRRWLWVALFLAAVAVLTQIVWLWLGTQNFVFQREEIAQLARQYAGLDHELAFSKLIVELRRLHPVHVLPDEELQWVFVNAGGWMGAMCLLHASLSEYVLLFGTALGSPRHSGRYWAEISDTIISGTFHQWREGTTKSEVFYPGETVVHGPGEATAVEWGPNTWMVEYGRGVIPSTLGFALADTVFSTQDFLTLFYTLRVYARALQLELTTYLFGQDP
pKi: −log10 of the molar value.
Below, each of the compounds is paired with its reported pKi value.

Example entries begin here.
>>> reported("O=C(CN1CCN(Cc2ccccc2)CC1)c1c[nH]c2ccc(O)cc12")
6.36
>>> reported("O=C(CN1CCC(Cc2ccccc2)CC1)c1c[nH]c2cc(O)ccc12")
"< 6.00"

The reported value for O=C(C(=O)N1CCC(Cc2ccccc2)CC1)c1c[nH]c2cc(O)ccc12 in terms of pKi is < 6.00

The reported value for O=C(C(=O)N1CCC(Cc2ccccc2)CC1)c1c[nH]c2ccc(O)cc12 in terms of pKi is < 6.00

The reported value for O=C(CN1CCC(Cc2ccccc2)CC1)c1c[nH]c2ccc(O)cc12 in terms of pKi is < 6.00

All figures here come from ChEMBL document CHEMBL1938374.
